# assay system: 17β-HSD1 (Homo sapiens)
# Construct: For the partial purification of 17β-HSD1, the cytosolic fraction was precipitated with ammonium sulfate; from tissue; host or cells: human placenta, cytosolic fraction
# Sequence (P14061 whole entry): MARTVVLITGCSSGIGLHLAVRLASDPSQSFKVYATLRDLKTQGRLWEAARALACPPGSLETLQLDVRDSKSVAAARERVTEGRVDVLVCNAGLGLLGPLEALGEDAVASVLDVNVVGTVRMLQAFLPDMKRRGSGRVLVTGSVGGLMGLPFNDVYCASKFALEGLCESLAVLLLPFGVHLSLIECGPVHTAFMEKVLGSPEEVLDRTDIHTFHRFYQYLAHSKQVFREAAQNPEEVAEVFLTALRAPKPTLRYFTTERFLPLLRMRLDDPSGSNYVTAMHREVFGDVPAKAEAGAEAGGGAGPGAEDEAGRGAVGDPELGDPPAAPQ
# test summary: Inhibition of 17β-HSD1 in cell-free assay
# Assay type: biochemical
# condition summary: inhibitor concentration 1 μM; human placenta, cytosolic fraction, substrate E1 500 nM, cofactor NADH 500 μM
measure name: inhibition at 1 µM (%)
A number alone suffices; assume %.

Please look at this molecule and report its inhibition at 1 µM: COc1cccc(CCN(C)C(=O)c2ccc(-c3ccccc3)s2)c1
11

Give the value of inhibition at 1 µM reported for the following: COc1ccc(N(C)C(=O)c2ccc(-c3cccc(OC)c3F)s2)cc1
18

Given CN(CCc1cccc(O)c1)C(=O)c1ccc(-c2cccc(F)c2)s1 , respond with its inhibition at 1 µM.
12

Hello, please tell me recorded inhibition at 1 µM for this one: CN(CCc1cccc(O)c1)C(=O)c1ccc(-c2cccc(O)c2)s1
23

---

# assay system: 17β-HSD1 (Homo sapiens)
# Construct: For the partial purification of 17β-HSD1, the cytosolic fraction was precipitated with ammonium sulfate
# test summary: Inhibition of 17β-HSD1 in cell-free assay
# condition summary: human placenta, cytosolic fraction, substrate E1 500 nM, cofactor NADH 500 μM
measure name: IC50 (µM)
# unit: µM | format: bare number

Identify IC50 associated with the molecule COc1cccc(N(C)C(=O)c2ccc(-c3ccccc3)s2)c1
4.34

Specify IC50 for Cc1cccc(-c2ccc(C(=O)N(C)Cc3cccc(O)c3)s2)c1 and stop.
10.6

Give a short answer stating reported IC50 for COc1cccc(-c2ccc(C(=O)N(C)Cc3cccc(O)c3)s2)c1F .
4.45

---

# assay system: 17β-HSD2 (Homo sapiens)
# Sequence (P37059 1-387): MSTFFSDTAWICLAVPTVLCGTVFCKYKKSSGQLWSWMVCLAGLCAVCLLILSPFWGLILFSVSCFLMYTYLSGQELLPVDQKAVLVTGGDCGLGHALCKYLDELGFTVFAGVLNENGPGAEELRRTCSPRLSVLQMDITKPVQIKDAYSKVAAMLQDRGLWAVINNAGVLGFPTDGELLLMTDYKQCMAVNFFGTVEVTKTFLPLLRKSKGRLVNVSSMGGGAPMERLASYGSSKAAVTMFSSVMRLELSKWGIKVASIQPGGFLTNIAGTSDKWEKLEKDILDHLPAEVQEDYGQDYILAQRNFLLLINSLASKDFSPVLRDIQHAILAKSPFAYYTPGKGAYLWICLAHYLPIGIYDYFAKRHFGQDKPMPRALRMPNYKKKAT
# test summary: Inhibition of 17β-HSD2 in cell-free assay
# condition summary: human placenta, microsomal fraction, substrate E2 500 nM, cofactor NAD+ 1500 μM
measure name: IC50 (nM)
Numeric only. Scale: nM

Supply recorded IC50 for COc1cccc(-c2cccc(C(=O)N(C)c3cccc(OC)c3)c2)c1 here.
517

Give reported IC50 value for Cc1cccc(N(C)C(=O)c2ccc(-c3cccc(O)c3)s2)c1
644

Find the measured IC50 of Cc1cccc(-c2ccc(C(=O)N(C)Cc3cccc(O)c3)s2)c1 and report it.
163

Check the records and state IC50 for COc1ccc(-c2ccc(C(=O)N(C)Cc3cccc(O)c3)s2)cc1
161

Return reported IC50. Input molecule: COc1cccc(CN(C)C(=O)c2ccc(-c3cccc(OC)c3)s2)c1
370

Report IC50, nothing else, for this molecule: COc1cccc(CN(C)C(=O)c2ccc(-c3cccc(C)c3)cc2)c1
265

Quickly give me recorded IC50 for CN(Cc1cccc(O)c1)C(=O)c1ccc(-c2cccc(F)c2)s1
326

Tell me IC50 reported for COc1cccc(-c2ccc(C(=O)N(C)c3cccc(C)c3)s2)c1
207

Supply reported IC50 belonging to this molecule: COc1cccc(N(C)C(=O)c2ccc(-c3ccc(OC)c(F)c3)s2)c1
242

---

# assay system: 17β-HSD2 (Homo sapiens, UniProt P37059)
# Sequence (P37059 1-387): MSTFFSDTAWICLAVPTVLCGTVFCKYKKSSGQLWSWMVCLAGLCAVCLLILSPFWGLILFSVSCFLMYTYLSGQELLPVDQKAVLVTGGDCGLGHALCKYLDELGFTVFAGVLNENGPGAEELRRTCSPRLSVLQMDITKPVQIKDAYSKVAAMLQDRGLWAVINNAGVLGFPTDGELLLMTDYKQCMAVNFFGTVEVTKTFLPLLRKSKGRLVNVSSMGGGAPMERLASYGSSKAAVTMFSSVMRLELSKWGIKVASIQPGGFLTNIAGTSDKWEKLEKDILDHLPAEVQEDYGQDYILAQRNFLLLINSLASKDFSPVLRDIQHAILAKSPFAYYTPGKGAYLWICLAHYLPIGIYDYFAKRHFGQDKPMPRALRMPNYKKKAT
# test summary: Inhibition of 17β-HSD2 in cell-free assay
# condition summary: human placenta, microsomal fraction, substrate E2 500 nM, cofactor NAD+ 1500 μM
# Method: Fresh human placenta was homogenized. Cytosolic and microsomal fractions were separated by centrifugation at 1000 g, 10000 g and 150000 g. 17β-HSD2 was obtained directly from the microsomal fraction. […] Inhibitor stock solutions were prepared in DMSO. […] Detection and quantification of the steroids were performed using a radioflow detector (Berthold Technologies, Bad Wildbad). The conversion rate was calculated according to the following equation: […]
measure name: pIC50
Keep it numeric: pIC50 is minus log10 of the concentration in mol/L.

Please look at this compound and report its pIC50: COc1cccc(N(C)C(=O)c2ccc(-c3ccccc3)s2)c1 [compound 51]
6.68

Kindly indicate its recorded pIC50. Item: COc1cccc(-c2ccc(C(=O)N(C)Cc3cccc(O)c3)s2)c1F [compound 43]
7.21

Please look at this compound and report its pIC50: CN(Cc1cccc(O)c1)C(=O)c1ccc(-c2ccc(O)cc2)s1 [compound 26]
6.47

Indicate the recorded pIC50 value for this compound: COc1cccc(N(C)C(=O)c2ccc(-c3ccc(OC)cc3OC)s2)c1 [compound 57]
6.50

Supply recorded pIC50 for COc1cccc(N(C)C(=O)c2ccc(-c3cccc(N(C)C)c3)s2)c1 [compound 58] here.
6.77

Please indicate pIC50 recorded for COc1cccc(-c2ccc(C(=O)N(C)c3cccc(C(F)(F)F)c3)s2)c1 [compound 75]
6.14

State its pIC50: COc1cccc(-c2ccc(C(=O)N(C)c3cccc(-c4ccccc4)c3)s2)c1 [compound 76]
6.86

Note pIC50 for the compound shown: COc1cccc(N(C)C(=O)c2ccc(-c3ccc(F)c(OC)c3)s2)c1 [compound 62]
6.14

Using known records, supply pIC50 for CN(Cc1cccc(O)c1)C(=O)c1cccc(-c2cccc(O)c2)c1 [compound 8]
6.32

State its pIC50: CN(Cc1cccc(O)c1)C(=O)c1ccc(-c2cccc(N(C)C)c2)s1 [compound 40]
6.61

Look up and state reported pIC50 for COc1cccc(N(C)C(=O)c2ccc(-c3cccc(OC)c3F)s2)c1 [compound 56]
7.21

Indicate the recorded pIC50 value for this compound: CN(Cc1cccc(O)c1)C(=O)c1ccc(-c2ccccc2O)s1 [compound 28]
6.83

Please look at this compound and report its pIC50: CN(Cc1cccc(O)c1)C(=O)c1ccc(-c2cccc(O)c2)s1 [compound 24]
6.40

---

# assay system: 17β-HSD2 (Homo sapiens, UniProt P37059)
# test summary: Inhibition of 17β-HSD2 in MDA-MB-231 cellular assay
# Format: cell-based
# condition summary: MDA-MB-231 cells, substrate [3H]-E2 200 nM
measure name: inhibition at 1 µM (%)
Answer format: numeric, % implied, no suffix.

Return reported inhibition at 1 µM for target or system 17β-HSD2 (Homo sapiens, UniProt P37059), item COc1ccc(-c2ccc(C(=O)N(C)Cc3cccc(O)c3)s2)cc1 .
88

Fill: inhibition at 1 µM (17β-HSD2 (Homo sapiens, UniProt P37059)) for this molecule CN(Cc1cccc(O)c1)C(=O)c1ccc(-c2ccccc2O)s1
75

Please indicate recorded inhibition at 1 µM of COc1cccc(N(C)C(=O)c2ccc(-c3cccc(OC)c3F)s2)c1 measured with 17β-HSD2 (Homo sapiens, UniProt P37059).
70

Lab note: 17β-HSD2 (Homo sapiens, UniProt P37059) assay, enter inhibition at 1 µM for COc1cccc(-c2ccc(C(=O)N(C)c3cccc(C)c3)s2)c1 here
50

Enter inhibition at 1 µM (test system 17β-HSD2 (Homo sapiens, UniProt P37059)) for COc1cccc(N(C)C(=O)c2ccc(-c3ccccc3)s2)c1
67

---

# assay system: 17β-HSD2 (Homo sapiens)
# test summary: Inhibition of 17β-HSD2 in cell-free assay
# Type: biochemical
# Set-up: 17β-HSD2 was obtained directly from the microsomal fraction; from tissue; host or cells: human placenta, microsomal fraction
# condition summary: inhibitor concentration 1 μM; human placenta, microsomal fraction, substrate E2 500 nM, cofactor NAD+ 1500 μM
# Method: Fresh human placenta was homogenized. Cytosolic and microsomal fractions were separated by centrifugation at 1000 g, 10000 g and 150000 g. 17β-HSD2 was obtained directly from the microsomal fraction. […] Inhibitor stock solutions were prepared in DMSO. […] Detection and quantification of the steroids were performed using a radioflow detector (Berthold Technologies, Bad Wildbad). The conversion rate was calculated according to the following equation: […]
measure name: inhibition at 1 µM

Return value of inhibition at 1 µM for input COc1ccc(-c2cccc(C(=O)N(C)Cc3cccc(OC)c3)c2)cc1 [compound 5] , no commentary.
11%

Provide measured inhibition at 1 µM value, entry: COc1ccc(N(C)C(=O)c2ccc(-c3cccc(OC)c3F)s2)cc1 [compound 73]
49%

Please give measured inhibition at 1 µM of the following entry: COc1cccc(CCN(C)C(=O)c2ccc(-c3ccccc3)s2)c1 [compound 19]
18%

Return inhibition at 1 µM for the following compound: COc1cccc(CCN(C)C(=O)c2ccc(-c3cccc(OC)c3)s2)c1 [compound 17]
31%

Using known records, supply inhibition at 1 µM for CN(CCc1cccc(O)c1)C(=O)c1ccc(-c2ccccc2)s1 [compound 20]
11%

For the compound CN(CCc1cccc(O)c1)C(=O)c1ccc(-c2cccc(O)c2)s1 [compound 18] , give its reported inhibition at 1 µM.
37%

Give the measured inhibition at 1 µM for CN(CCc1cccc(O)c1)C(=O)c1ccc(-c2cccc(F)c2)s1 [compound 22]
17%

Please list inhibition at 1 µM recorded for the compound COc1cccc(CN(C)C(=O)c2ccc(-c3ccccc3OC)s2)c1 [compound 27]
48%

Source of measurements: patent US20140057953A1
